Source of measurements: PubChem BioAssay AID1963984

- Test system: 233499-124-R-J3-PDC spheroids with HUVEC/MSC, viability;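 note: spheroids exposed to agents for seven days before readout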
- PROTOCOL: Anticancer human tumor 233499-124-R-J3-PDC patient-derived colon adenocarcinoma cell line growth inhibition [PI3K]
- RECORDED_CONDITIONS: second compound 10 µM; first compound 0.000316 µM; hits give low values
- From the text: Combinatorial screen of targeted agents with the PI3K inhibitors inavolisib, alpelisib, duvelisib, and copanlisib in multi-cell type tumor spheroids A high-throughput screen of multi-cell type tumor spheroids was designed to identify active combinations of targeted small molecules and PI3K pathway inhibitors. […] Compounds. […] If the clinical Cmax for an agent had not been determined, the highest concentration tested was 10 microM. […]
Rule: viability, T/C below 80% gives YES, anything at or above gives NO.

Some entries whose results are on file:
>>> class_label("CC(C)n1nc(-c2ccc3oc(N)nc3c2)c2c(N)ncnc21 + Cc1nc(NC(=O)N2CCCC2C(N)=O)sc1-c1ccnc(C(C)(C)C(F)(F)F)c1")
"YES"
>>> class_label("Cn1ncnc1[C@H]1c2n[nH]c(=O)c3cc(F)cc(c23)N[C@@H]1c1ccc(F)cc1 + CC(Nc1ncnc2nc[nH]c12)c1cc2cccc(Cl)c2c(=O)n1-c1ccccc1")
"NO"
>>> class_label("Cn1ncnc1[C@H]1c2n[nH]c(=O)c3cc(F)cc(c23)N[C@@H]1c1ccc(F)cc1 + Cc1nc(NC(=O)N2CCCC2C(N)=O)sc1-c1ccnc(C(C)(C)C(F)(F)F)c1")
"YES"

Is viability, T/C of CC(C)n1nc(-c2ccc3oc(N)nc3c2)c2c(N)ncnc21 + CC(Nc1ncnc2nc[nH]c12)c1cc2cccc(Cl)c2c(=O)n1-c1ccccc1 strictly below 80%?
NO

Same question for CC(=O)c1c(C)c2cnc(Nc3ccc(N4CCNCC4)cn3)nc2n(C2CCCC2)c1=O + Cc1nc(NC(=O)N2CCCC2C(N)=O)sc1-c1ccnc(C(C)(C)C(F)(F)F)c1 please.
YES

Same question for CC(=O)c1c(C)c2cnc(Nc3ccc(N4CCNCC4)cn3)nc2n(C2CCCC2)c1=O + CC(Nc1ncnc2nc[nH]c12)c1cc2cccc(Cl)c2c(=O)n1-c1ccccc1 please.
NO
